B1: BRF1 (parent)
chain: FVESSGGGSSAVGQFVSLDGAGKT

# Variants of: B1
# assay: protein stability index of a GFP-peptide fusion (GPS, HEK-293T) (PSI 1-6); higher = more stable;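 note: lentivirally expressed fusions sorted by FACS into six bins by GFP to DsRed ratio, PSI derived from sequencing read proportions per bin multiplied by bin number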
# setup conditions: c terminus: a fixed tail appended
Assign Met whenever protein stability index does not fall below 3; assign Not met whenever it does.

S4A = Not met

## Input Given G20V , state whether its protein stability index is at least 3.
## Output Not met

## Input Quick check, protein stability index >= 3? Q14M
## Output Met
